- Test system: SF-295 CNS
- Test method notes: NCI tumour cell line growth inhibition, 48 h; in the data active = GI50 below about 0.43 µM; inactive = the rest
Respond using exactly one of the listed classes: class 1 (active), class 0 (inactive)

Previously resolved entries follow.
> print(dat)
                                   molecule      cat
1    CC1(C)CCC[C@]2(C)c3cc(O)ccc3CC[C@@H]12  class 0
2  Oc1ccc2ccccc2c1C1NN=C(c2ccccc2)S1 (stereo unspecified)  class 0
3  N#Cc1ccc(C2C3=C(CCCC3=O)OC3=C2C(=O)c2ccccc2C3=O)cc1 (stereo unspecified)  class 0
4  O=C(/C=C/c1cccc([N+](=O)[O-])c1)c1ccc(O)c(CN2CCN(c3cc4c(cc3F)c(=O)c(C(=O)O)cn4C3CC3)CC2)c1  class 0
5  CN[C@@H]1C[C@H]2O[C@@](C)([C@@H]1OC)n1c3ccccc3c3c4c(c5c6ccccc6n2c5c31)C(=O)N[C@H]4O  class 1

stdin: Dear all, I need the recorded test outcome for `CC(C)[NH-].CC(C)[NH-].O.O.[Cl][Pt+2][Cl]` , thank you.
stdout: class 0

stdin: Dear all, I need the recorded test outcome for `COc1cc2c(cc1OC)-c1ccc3cc4c(cc3c1N(CCN(C)C)C2)OCO4` , thank you.
stdout: class 1

stdin: Dear all, I need the recorded test outcome for CCN(CC)CCCC(C)Nc1c2ccc(Cl)cc2nc2cc(OC)c(OC)cc12 (stereo unspecified) , thank you.
stdout: class 0
